Assay: Absorbance at photostationary state (PSS) under simulated sunlight or 365 nm light
Assay type: physicochemical
Set-up: unit not given here
Details: wavelength of maximum absorbance in the visible range, ring-closed isoform; 2.0×10^−5 M in triglyme
Label 1 when λ max < 600; otherwise 0.

These recorded examples may help you get a feel for the data.
CCOCCOCCOCCOc1ccc2c(C3=C(c4c(-c5ccc(C(C)(C)C)cc5)oc5cc(OCCOCCOCCOCC)ccc45)C(F)(F)C(F)(F)C3(F)F)c(-c3ccc(C(C)(C)C)cc3)oc2c1 [S161] : 1
COc1ccc(-c2sc(-c3cc4ccccc4s3)cc2C2=C(c3cc(-c4cc5ccccc5s4)sc3-c3ccc(OC)cc3)C(F)(F)C(F)(F)C2(F)F)cc1 [S110] : 0
CC(C)(C)c1ccc(-c2cc(C3=C(c4cc(-c5ccc(C(C)(C)C)s5)sc4-c4ccc(C(C)(C)C)s4)C(F)(F)C(F)(F)C3(F)F)c(-c3ccc(C(C)(C)C)s3)s2)s1 [S003] : 0

Here is the next item to consider.
Query :: Quick check: does Cc1csc(-c2cc(C3=C(c4cc(-c5cc(C)cs5)sc4-c4cc(C)cs4)C(F)(F)C(F)(F)C3(F)F)c(-c3cc(C)cs3)s2)c1 [S149] have λ max under 600?
Result :: 0

###

Test: Solubility in indicated solvent
Type: physicochemical
Conditions: % wt soluble in triglyme
MEASURE: Solubility (% wt)
Respond with the bare value in % wt.

Worked examples, 2 compounds total:
COc1cccc(-c2cc(C3=C(c4cc(-c5cccc(OC)c5)sc4-c4cccc(OC)c4)C(F)(F)C(F)(F)C3(F)F)c(-c3cccc(OC)c3)s2)c1 [S096] : 15
CC(C)(C)c1ccc(-c2sc(-c3ccc(Cl)cc3)cc2C2=C(c3cc(-c4ccc(Cl)cc4)sc3-c3ccc(C(C)(C)C)cc3)C(F)(F)C(F)(F)C2(F)F)cc1 [S060] : 1

Query :: State the recorded Solubility for this entry: Cc1cc(-c2cc(C3=C(c4cc(-c5cc(C)c(C)s5)sc4-c4cc(C)c(C)s4)C(F)(F)C(F)(F)C3(F)F)c(-c3cc(C)c(C)s3)s2)sc1C [S011]
Result :: 3

Query :: What about this compound? CC(C)(C)c1ccc(-c2sc(-c3cccs3)cc2C2=C(c3cc(-c4cccs4)sc3-c3ccc(C(C)(C)C)cc3)C(F)(F)C(F)(F)C2(F)F)cc1 [S052]
Result :: 1

###

Let's look at some compounds and their measured sensitivity index.
Test: Absorbance at photostationary state (PSS) under simulated sunlight or 365 nm light
Type: physicochemical
Settings: ratio of PSS under 365 nm light to PSS under full spectrum light (without UV blocking film)
Reply briefly: the number, and no unit.

Worked examples, 2 compounds total:
COc1ccc(-c2sc(-c3ccc(/C=C/c4ccccc4)cc3)cc2C2=C(c3cc(-c4ccc(/C=C/c5ccccc5)cc4)sc3-c3ccc(OC)cc3)C(F)(F)C(F)(F)C2(F)F)cc1 [S088] : 2.26
O=C(O)c1ccc(-c2cc(C3=C(c4cc(-c5ccc(C(=O)O)s5)sc4-c4ccc(C(=O)O)s4)C(F)(F)C(F)(F)C3(F)F)c(-c3ccc(C(=O)O)s3)s2)s1 [S024] : 5.10

Now turn to the next compound.
Query :: State the recorded sensitivity index for this entry: CC(C)(C)c1ccc(-c2cc(C3=C(c4cc(-c5sc(C(C)(C)C)cc5C(=O)O)sc4-c4ccc(C(=O)O)s4)C(F)(F)C(F)(F)C3(F)F)c(-c3ccc(C(=O)O)s3)s2)s1 [S124]
Result :: 1.38

###

Let's look at some compounds and their measured λ max.
Test: Absorbance at photostationary state (PSS) under simulated sunlight or 365 nm light
Type: physicochemical
Design: unit not given here
Details: wavelength of maximum absorbance in the visible range, ring-closed isoform; 2.0×10^−5 M in triglyme
Reply briefly: the number, and no unit.

Worked examples, 5 compounds total:
FC1(F)C(c2cc(-c3ccc(Cl)cc3)sc2-c2ccc(Cl)cc2)=C(c2cc(-c3ccc(Cl)cc3)sc2-c2ccc(Cl)cc2)C(F)(F)C1(F)F [S056] : 610
FC1(F)C(c2nc(-c3ccccc3)sc2-c2ccccc2)=C(c2nc(-c3ccccc3)sc2-c2ccccc2)C(F)(F)C1(F)F [S035] : 540
COc1cccc(-c2cc(C3=C(c4cc(-c5cccc(OC)c5)sc4-c4cccc(OC)c4)C(F)(F)C(F)(F)C3(F)F)c(-c3cccc(OC)c3)s2)c1 [S096] : 609
Cc1c(-c2ccccc2)sc(-c2ccccc2)c1C1=C(c2c(-c3ccccc3)sc(-c3ccccc3)c2C)C(F)(F)C(F)(F)C1(F)F [S017] : 605
FC1(F)C(c2cc(-c3ccccc3)sc2-c2ccccc2)=C(c2cc(-c3ccc(Cl)cc3)sc2-c2ccccc2)C(F)(F)C1(F)F [S006] : 610

Query :: State the recorded λ max for this entry: COCCC[Si](CCCOC)(CCCOC)c1ccc(-c2sc(-c3ccc(C(C)(C)C)s3)cc2C2=C(c3cc(-c4ccc(C(C)(C)C)s4)sc3-c3ccc([Si](CCCOC)(CCCOC)CCCOC)s3)C(F)(F)C(F)(F)C2(F)F)s1 [S158]
Result :: 650

Query :: What about this compound? Cc1ccc(-c2oc3ccccc3c2C2=C(c3c(-c4ccc(C)s4)oc4ccccc34)C(F)(F)C(F)(F)C2(F)F)s1 [S137]
Result :: 497

Query :: What about this compound? CC(C)(C)c1ccc(-c2cc(C3=C(c4cc(-c5ccc(C(C)(C)C)s5)sc4-c4ccc(O)cc4)C(F)(F)C(F)(F)C3(F)F)c(-c3ccc(O)cc3)s2)s1 [S105]
Result :: 647

Query :: What about this compound? CCOCCOCCOCCOC(CC)(CC)c1ccc(-c2sc(-c3ccc(C(C)(C)C)s3)cc2C2=C(c3cc(-c4ccc(C(C)(C)C)s4)sc3-c3ccc(C(CC)(CC)OCCOCCOCCOCC)s3)C(F)(F)C(F)(F)C2(F)F)s1 [S128]
Result :: 648

###

Experiment: Absorbance at photostationary state (PSS) under simulated sunlight or 365 nm light
Type: physicochemical
Conditions: simulated sunlight (QSUN solar simulator), no UV blocking film; 2.0×10^−5 M in triglyme
Label YES when Absorbance at PSS, full < 0.3; otherwise NO.

These recorded examples may help you get a feel for the data.
C[Si](C)(C)c1ccc(-c2cc(C3=C(c4cc(-c5ccc([Si](C)(C)C)s5)sc4-c4ccc([Si](C)(C)C)s4)C(F)(F)C(F)(F)C3(F)F)c(-c3ccc([Si](C)(C)C)s3)s2)s1 : NO
CC(C)(C)c1ccc(-c2sc(-c3ccc(C(C)(C)O)cc3)cc2C2=C(c3cc(-c4ccc(C(C)(C)O)cc4)sc3-c3ccc(C(C)(C)C)cc3)C(F)(F)C(F)(F)C2(F)F)cc1 : YES
CC(C)(C)c1ccc(-c2cc(C3=C(c4cc(-c5ccc(C(C)(C)C)s5)sc4-c4ccc(N5CCOCC5)cc4)C(F)(F)C(F)(F)C3(F)F)c(-c3ccc(N4CCOCC4)cc3)s2)s1 : YES
CC(C)(C)c1ccc(-c2cc(C3=C(c4cc(-c5ccc(C(C)(C)C)cc5)sc4-c4ccc(C(C)(C)C)cc4)C(F)(F)C(F)(F)C3(F)F)c(-c3ccc(C(C)(C)C)cc3)s2)cc1 : YES

Here is the next item to consider.
Query :: Quick check: does `FC1(F)C(c2c(-c3ccccc3)sc3ccccc23)=C(c2c(-c3ccccc3)sc3ccccc23)C(F)(F)C1(F)F` have Absorbance at PSS, full under 0.3?
Result :: YES

###

Experiment: Absorbance at photostationary state (PSS) under simulated sunlight or 365 nm light
Type: physicochemical
Settings: 365 nm light source; 2.0×10^−5 M in triglyme
Returns fulfilled if the recorded Absorbance at PSS, 365 nm is greater than or equal to 0.3, and not fulfilled otherwise.

Cc1csc(-c2cc(C3=C(c4cc(-c5cc(C)cs5)sc4-c4cc(C)cs4)C(F)(F)C(F)(F)C3(F)F)c(-c3cc(C)cs3)s2)c1 : fulfilled

Query :: API: above_or_equal(metric=Absorbance at PSS, 365 nm, cutoff=0.3) for item `Cc1sc(-c2cc(C3=C(c4cc(-c5sc(C)c6c5OCCO6)sc4-c4sc(C)c5c4OCCO5)C(F)(F)C(F)(F)C3(F)F)c(-c3sc(C)c4c3OCCO4)s2)c2c1OCCO2`
Result :: not fulfilled

Query :: What about this compound? `COc1ccc(-c2cc(C3=C(c4cc(-c5ccc(C#N)cc5)sc4-c4ccc(OC)cc4)C(F)(F)C(F)(F)C3(F)F)c(-c3ccc(C#N)cc3)s2)cc1`
Result :: not fulfilled

Query :: What about this compound? `CC(C)(C)c1ccc(-c2cc(C3=C(c4cc(-c5ccc(C(C)(C)C)s5)sc4-c4ccc(N5CCOCC5)cc4)C(F)(F)C(F)(F)C3(F)F)c(-c3ccc(N4CCOCC4)cc3)s2)s1`
Result :: fulfilled

Query :: What about this compound? `COc1ccc(-c2oc3cc(OC)ccc3c2C2=C(c3c(-c4ccc(OC)cc4)oc4cc(OC)ccc34)C(F)(F)C(F)(F)C2(F)F)cc1`
Result :: not fulfilled

Query :: What about this compound? `COc1ccc(-c2sc(-c3ccc(/C=C/c4ccccc4)cc3)cc2C2=C(c3cc(-c4ccc(/C=C/c5ccccc5)cc4)sc3-c3ccc(OC)cc3)C(F)(F)C(F)(F)C2(F)F)cc1`
Result :: fulfilled
